- System: AsPC-1 cells
- TEST METHOD NOTES: AsPC-1 CTG Assay (CellTiter-Glo cell viability)
- Type: cell-based, human
- PARTICULARS: AsPC-1, 72 h; first value of the cell; read-out: G12D/C/V Cell Proliferation CTG (72 h) AsPC-1
Assign IC50 to each entry below.
Enter your answer as a number in nM; do not include the unit.

**Query** Specify reported IC50 for the compound shown: `O=C1OCCCc2c(Cl)cc3[nH]ncc3c2-c2ncc3c(nc(OC[C@@]45CCCN4C[C@H](F)C5)nc3c2F)N2CCC[C@]3(C2)C[C@H](C3)O1`
**Result** 318

**Query** Identify the reported IC50 for the following entry. `Fc1c2ncc3c(nc(OC[C@@]45CCCN4C[C@H](F)C5)nc13)N1CCO[C@@H](COCCCCc3c(Cl)cc4[nH]ncc4c3-2)C1`
**Result** 250

**Query** Note IC50 for the compound shown: `O=C1CC[C@@H]2C[C@@H]2c2c(Cl)cc3[nH]ncc3c2-c2ncc3c(nc(OC[C@@]45CCCN4C[C@H](F)C5)nc3c2F)N2CCC[C@H](C2)O1`
**Result** 230

* * *

- EXPERIMENTAL SYSTEM: His-tagged KRAS G12D protein (Homo sapiens (Human), UniProt P01116, G12D)
- Sequence (P01116 other isoform, or with tags, fused parts or gaps G12D): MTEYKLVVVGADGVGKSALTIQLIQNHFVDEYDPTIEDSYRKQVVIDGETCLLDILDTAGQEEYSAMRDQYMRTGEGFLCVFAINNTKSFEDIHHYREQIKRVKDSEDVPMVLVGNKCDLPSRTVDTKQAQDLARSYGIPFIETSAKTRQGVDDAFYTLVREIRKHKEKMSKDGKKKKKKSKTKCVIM
- TEST METHOD NOTES: KRAS G12D TR-FRET Assay
- Format: binding
- PARTICULARS: read-out: KRAS G12D Binding IC50
MEASUREMENT KIND: IC50
Enter the number, and then the unit.

**Query** State its IC50: `Cc1c2ncc3c(nc(OC[C@@]45CCCN4C[C@H](F)C5)nc13)N1CCC[C@](C)(C1)NC(=O)CCCc1c(F)ccc3cc(O)cc-2c13`
**Result** 6 nM

**Query** State its IC50: C[C@@]12CCCN(C1)c1nc(OC[C@@]34CCCN3C[C@H](F)C4)nc3c(F)c(ncc13)-c1cccc3ccc(F)c(c13)CCC(F)C(=O)N2 (mixture of isomers)
**Result** 12 nM

**Query** Read off the recorded IC50 for O=C1OC[C@H]2C[C@@H]2c2c(Cl)cc3[nH]ncc3c2-c2ncc3c(nc(OC[C@@]45CCCN4C[C@H](F)C5)nc3c2F)N2CCC[C@H](C2)O1 (mixture of isomers)
**Result** 10 nM

**Query** Note down IC50 recorded for `O=C1OCCCc2c(Cl)cc3[nH]ncc3c2-c2ncc3c(nc(OC[C@H]4CC[C@@H]5COCCN54)nc3c2F)N2CCOC[C@H](C2)O1`
**Result** 6 nM

**Query** Item O=C1CCCCc2c(Cl)cc3[nH]ncc3c2-c2ncc3c(nc(OC[C@@]45CCCN4C[C@H](F)C5)nc3c2F)N2C[C@@H](O)C[C@H](C2)N1 (racemic) : provide IC50
**Result** 6 nM

**Query** For the compound `Cc1cc2[nH]ncc2c2c1CCOC(=O)OC1CC3(CCCN(C3)c3nc(OC[C@@H]4CCCN4C)nc4c(F)c-2ncc34)C1` , give its reported IC50.
**Result** 11 nM

**Query** Give the reported IC50 for this compound. `C#CCO[C@@H]1CN2CCC[C@@]2(COc2nc3c4cnc(c(F)c4n2)-c2c(c(Cl)cc4[nH]ncc24)CCCOC(=O)O[C@@H]2COCCN3C2)C1`
**Result** 13 nM

* * *

- EXPERIMENTAL SYSTEM: His-tagged KRAS G12D protein (Homo sapiens (Human), UniProt P01116, G12D)
- TEST METHOD NOTES: KRAS G12D TR-FRET Assay
- Assay type: binding
- PARTICULARS: read-out: KRAS G12D Binding IC50
MEASUREMENT KIND: IC50 (nM)
Write it as a number; the unit nM goes unstated.

**Query** Provide one value: measured IC50 of CN1CCC[C@H]1COc1nc2c3cnc(c(F)c3n1)-c1c(c(Cl)cc3[nH]ncc13)CCCOC(=O)O[C@@H]1COCCN2C1 [Example 207]
**Result** 4

**Query** Please report the measured IC50 for Cc1cc2[nH]ncc2c2c1/C=C\COC(=O)O[C@@H]1CCCN(C1)c1nc(OC[C@@]34CCCN3C[C@H](F)C4)nc3c(F)c-2ncc13 (single isomer, unassigned) [Example 123]
**Result** 8

**Query** Give IC50 for O=C1CCCCc2c(Cl)cccc2-c2ncc3c(nc(OC[C@@]45CCCN4C[C@H](F)C5)nc3c2F)N2CC[C@@H]3CCN1[C@@H]3C2 [Example 163]
**Result** 2840

**Query** Look up IC50 of O=C1CCCCc2c(Cl)cc3[nH]ncc3c2-c2ncc3c(nc(OC[C@@]45CCCN4C[C@H](F)C5)nc3c2F)N2CCC[C@H](C2)O1 [Example 36, bis(2,2,2-trifluoroacetate)] and report it.
**Result** 3

**Query** // fetch IC50 given entry O=C1N[C@@H]2CCCCN(C2)c2nc(OC[C@@]34CCCN3C[C@H](F)C4)nc3c(F)c(ncc23)-c2c(c(Cl)cc3[nH]ncc23)CCCCO1 [Example 291]
**Result** 26

**Query** Tell me its IC50 given CN(C)CC1(COc2nc3c4cnc(c(F)c4n2)-c2c(c(Cl)cc4[nH]ncc24)CCCOC(=O)O[C@@]2(C)COCCN3C2)CC1 [Example 332] as the entry.
**Result** 3240

**Query** Return IC50 (reported value) for this molecule: O=C1CCCCc2c(Cl)cc3[nH]ncc3c2-c2ncc3c(nc(OC[C@@]45CCCN4C[C@H](F)C5)nc3c2F)N2CC[C@@H]3CCN1[C@@H]3C2 [Example 61]
**Result** 79

**Query** Complete the entry with IC50 for O=C1CCCCc2c(C(F)(F)F)cc3[nH]ncc3c2-c2ncc3c(nc(OC[C@@]45CCCN4C[C@H](F)C5)nc3c2F)N2CCC[C@H](C2)O1 [Example 87]
**Result** 24

**Query** State, in one line, measured IC50 of CN1CCC[C@H]1COc1nc2c3cnc(c(F)c3n1)-c1cc(O)cc3ccc(F)c(c13)CCOC(=O)O[C@]1(C)COCCN2C1 [Example 344]
**Result** 8

**Query** Give a short answer stating reported IC50 for Cc1cc2[nH]ncc2c2c1CCCOC(=O)O[C@]1(C)COCCN(C1)c1nc(OC[C@@H]3CCCN3C)nc3c(F)c-2ncc13 [Example 183] .
**Result** 8

**Query** Tell us which IC50 value is on record for CO[C@@H]1C[C@@H](COc2nc3c4cnc(c(F)c4n2)-c2c(c(Cl)cc4[nH]ncc24)CCOC(=O)OC2CC4(CCCN3C4)C2)N(C)C1 (mixture of isomers) [Example 307]
**Result** 4

* * *

- System: MIA PaCa-2 cells
- TEST METHOD NOTES: MIA PaCa-2 CTG Assay (CellTiter-Glo cell viability)
- Assay type: cell-based, human
- PARTICULARS: Homo sapiens; Mia PaCa-2, 72 h; second value of the cell; read-out: G12D/C/V Cell Proliferation CTG (72 h) Mia PaCa-2
MEASUREMENT KIND: pIC50
# pIC50: negative log10 of molar concentration; output just the value

**Query** Report its pIC50 with MIA PaCa-2 cells as the test system: O=C1OC/C=C\c2c(Cl)cc3[nH]ncc3c2-c2ncc3c(nc(OC[C@@]45CCCN4C[C@H](F)C5)nc3c2F)N2CCC[C@H](C2)O1 (single isomer, unassigned)
**Result** 7.00

**Query** Given `O=C1CCCc2c(F)ccc3cccc(c23)-c2ncc3c(nc(OC[C@@]45CCCN4C[C@H](F)C5)nc3c2F)N2CC[C@H]3CCN1[C@H]3C2` , report its pIC50 on MIA PaCa-2 cells.
**Result** 6.70

**Query** Report value only: pIC50, MIA PaCa-2 cells, `CN(C)CC1(COc2nc3c4cnc(c(F)c4n2)-c2c(c(Cl)cc4[nH]ncc24)CCCOC(=O)O[C@@H]2COCCN3C2)CC1`
**Result** 7.51

**Query** Report the value of pIC50 obtained on MIA PaCa-2 cells for `C[C@@]12COCCN(C1)c1nc(OC[C@@]34CCCN3C[C@@H](F)C4)nc3c(F)c(ncc13)-c1c(c(Cl)cc3[nH]ncc13)CCCOC(=O)O2` .
**Result** 6.97

**Query** Give MIA PaCa-2 cells pIC50 for the following compound: `O=C1CCCCc2c(Cl)cc3[nH]ncc3c2-c2ncc3c(nc(OC[C@@]45CCCN4C[C@H](F)C5)nc3c2F)N2CCCC[C@H](C2)O1`
**Result** 8.00

**Query** Enter measured pIC50, system MIA PaCa-2 cells, for the compound shown: `O=C1OCCCc2c(Cl)cc3[nH]ncc3c2-c2ncc3c(nc(OC[C@@]45CCCN4C[C@@H](F)C5)nc3c2F)N2CCOC[C@H](C2)O1`
**Result** 6.46

Reference source: patent US20240294551A1
